Values from patent US7534763B2

MEASUREMENT DESCRIPTION: Dog pharmacokinetic study (iv and sc, solution vehicles)
Type: in vivo
CONDITION: male, beagle, blood, 67 ug/kg; dog, intravenous 67 μg/kg, propylene glycol:phosphate buffer (50:50); read-out: CLB (systemic blood clearance)
Where a SMILES comes first, the peptide text is derived from it. [ ]: non-standard residue; d: D form. Ala(6-(2-MePh)pyridin-3-yl) = Cc1ccccc1-c1ccc(C[C@H](N)C(=O)O)cn1; Bip(2'-Et-4'-OMe) = CCc1cc(OC)ccc1-c1ccc(C[C@H](N)C(=O)O)cc1; αMePhe(2-F) = C[C@](N)(Cc1ccccc1F)C(=O)O; Aib = CC(C)(N)C(=O)O
QUANTITY MEASURED: clearance (mL/min/kg)
Write the number in mL/min/kg without appending the unit.

// field: clearance; key: CCc1cc(OC)ccc1-c1ccc(C[C@H](NC(=O)[C@H](CC(=O)O)NC(=O)[C@H](CO)NC(=O)[C@@H](NC(=O)[C@](C)(Cc2ccccc2F)NC(=O)[C@@H](NC(=O)CNC(=O)[C@H](CCC(=O)O)NC(=O)C(C)(C)NC(=O)[C@@H](N)Cc2c[nH]cn2)[C@@H](C)O)[C@@H](C)O)C(=O)N[C@@H](Cc2ccc(-c3ccccc3C)nc2)C(N)=O)cc1 [SEQ ID NO: 9] (H-H[Aib]EGT[αMePhe(2-F)]TSD[Bip(2'-Et-4'-OMe)][Ala(6-(2-MePh)pyridin-3-yl)]-NH2) ; value = 0.9

====

MEASUREMENT DESCRIPTION: Dog pharmacokinetic study (iv and sc, solution vehicles)
Type: in vivo
CONDITION: beagle, plasma, sc, 67 ug/kg; dog, subcutaneous 67 μg/kg, Tables 6A-6C (vehicle 0.2 M Tris, pH 8.0)
Where a SMILES comes first, the peptide text is derived from it. [ ]: non-standard residue; d: D form. The star is where a group is joined. ξ: configuration not given here. Ala(6-(2-MePh)pyridin-3-yl) = Cc1ccccc1-c1ccc(C[C@H](N)C(=O)O)cn1; Phe(4-(2-Et-4-HO-Ph)) = CCc1cc(O)ccc1-c1ccc(C[C@H](N)C(=O)O)cc1; ξαMePhe(2-F) = CC(N)(Cc1ccccc1F)C(=O)O; ξαMeP = CC1(C(=O)O)CCCN1; Moc = COC(=O)*
QUANTITY MEASURED: Tmax
Entry format: amount then unit.

// field: Tmax; key: CCc1cc(O)ccc1-c1ccc(C[C@H](NC(=O)[C@H](CC(=O)O)NC(=O)[C@H](CO)NC(=O)[C@@H](NC(=O)C(C)(Cc2ccccc2F)NC(=O)[C@@H](NC(=O)CNC(=O)[C@H](CCC(=O)O)NC(=O)C2(C)CCCN2C(=O)[C@H](Cc2c[nH]cn2)NC(=O)OC)[C@@H](C)O)[C@@H](C)O)C(=O)N[C@@H](Cc2ccc(-c3ccccc3C)nc2)C(N)=O)cc1 (stereo partly shown) [SEQ ID NO: 158] (Moc-H[ξαMeP]EGT[ξαMePhe(2-F)]TSD[Phe(4-(2-Et-4-HO-Ph))][Ala(6-(2-MePh)pyridin-3-yl)]-NH2) ; value = 1.4 h

====

MEASUREMENT DESCRIPTION: Dog pharmacokinetic study (iv and sc, solution vehicles)
Type: in vivo
CONDITION: male, beagle, plasma, sc, 67 ug/kg; dog, subcutaneous 67 μg/kg, propylene glycol:phosphate buffer (50:50)
Where a SMILES comes first, the peptide text is derived from it. [ ]: non-standard residue; d: D form. Ala(6-(2-MePh)pyridin-3-yl) = Cc1ccccc1-c1ccc(C[C@H](N)C(=O)O)cn1; Bip(2'-Et-4'-OMe) = CCc1cc(OC)ccc1-c1ccc(C[C@H](N)C(=O)O)cc1; αMePhe(2-F) = C[C@](N)(Cc1ccccc1F)C(=O)O; Aib = CC(C)(N)C(=O)O
QUANTITY MEASURED: Cmax
Entry format: amount then unit.

// field: Cmax; key: CCc1cc(OC)ccc1-c1ccc(C[C@H](NC(=O)[C@H](CC(=O)O)NC(=O)[C@H](CO)NC(=O)[C@@H](NC(=O)[C@](C)(Cc2ccccc2F)NC(=O)[C@@H](NC(=O)CNC(=O)[C@H](CCC(=O)O)NC(=O)C(C)(C)NC(=O)[C@@H](N)Cc2c[nH]cn2)[C@@H](C)O)[C@@H](C)O)C(=O)N[C@@H](Cc2ccc(-c3ccccc3C)nc2)C(N)=O)cc1 [SEQ ID NO: 9] (H-H[Aib]EGT[αMePhe(2-F)]TSD[Bip(2'-Et-4'-OMe)][Ala(6-(2-MePh)pyridin-3-yl)]-NH2) ; value = 90 nM
